Field: GI50. Provide a value for each of the compounds that follow.
Test system: SR
Test: NCI tumour cell line growth inhibition, 48 h
The source made the active and inactive calls. No stated cut-off is given here; in the data, active = GI50 up to about 1.1 µM and inactive = higher.

### Prompt Enter reported GI50 observed with SR for `CCOC(=O)c1ccc(Nc2nc3ccc(C(F)(F)F)cc3nc2-c2ccccc2)cc1`
### Response > 100 µM (inactive)

### Prompt Now this one: `COc1ccc(-c2cc(O)c3cc4c(cc3n2)OCO4)c(OC)c1OC`
### Response 24.4 µM (inactive)

### Prompt Now this one: COc1ccc(C(=O)C(C(=O)CC(=O)Nc2cccc(C(F)(F)F)c2)c2ccc(OC)cc2)cc1 (stereo not given)
### Response > 100 µM (inactive)

### Prompt Now this one: O=C(O)c1ccccc1CC(Cc1ccc2c(c1)CCC2)C(=O)O (stereo not given)
### Response 8.07 µM (inactive)

### Prompt Now this one: `COC(=O)c1cc(C)ccc1/C=C1\Cc2cc(C)c(C)cc2C1=O`
### Response > 100 µM (inactive)

### Prompt Now this one: `N#Cc1c(NC(=S)NC(=O)c2ccccc2)nc2c(c1-c1ccccc1)CCC2`
### Response > 100 µM (inactive)

### Prompt Now this one: `O=C1/C(=C\c2ccc(Cl)cc2)N=C(c2ccccc2)N1n1c(=O)cn[nH]c1=S`
### Response 22.5 µM (inactive)

### Prompt Now this one: `O=C(O)CN1CCSc2ccccc2CN(CC(=O)O)CCSc2ccccc2C1`
### Response 4.61 µM (inactive)

### Prompt Now this one: `O=c1c2cc(S(=O)(=O)O)ccc2nc(COc2ccc(Oc3ccc(Cl)cc3Cl)cc2)n1-c1ccc(Cl)cc1Oc1c(Cl)cccc1Cl`
### Response 34 µM (inactive)

### Prompt Now this one: `NC1=Nc2cc(Cl)ccc2Sc2nc3ccccc3n21`
### Response 2.64 µM (inactive)

### Prompt Now this one: CCCCCCCCCCCCNC(=O)CCC(NC(=O)c1ccc(N(C)Cc2cnc3nc(N)nc(N)c3n2)cc1)C(=O)NCCCCCCCCCCCC (stereo not given)
### Response 11.9 µM (inactive)

### Prompt Now this one: COC(=O)C(Cc1c[nH]c2ccccc12)NP(=O)(O)OCC1OC(n2cc(Br)c(=O)[nH]c2=O)CC1O (stereo not given)
### Response > 100 µM (inactive)

### Prompt Now this one: `CC1=CC(=O)c2c(O)cccc2C1=O`
### Response 1.69 µM (inactive)

### Prompt Now this one: Nc1ncnc2c1ncn2C1OC(COC2C(CO)OC(OC(C(=O)O)C(O)C(OP(=O)(O)O)C(O)C(=O)O)C(O)C2O)C(O)C1O (stereo not given)
### Response 15.7 µM (inactive)

### Prompt Now this one: `CN(C)CCCNc1ccc2ncn3c4ccc(O)cc4c(=O)c1c23`
### Response < 0.0189 µM (active)

### Prompt Now this one: `O=C1OC(c2ccccc2)=N/C1=C\c1ccc([N+](=O)[O-])cc1`
### Response 2.35 µM (inactive)

### Prompt Now this one: `O=C(CSc1ncnc2[nH]cnc12)c1ccccc1`
### Response 92.5 µM (inactive)

### Prompt Now this one: `COc1ccc2nc3ccc(OC)cc3c(SCc3ccccc3)c2c1`
### Response > 32.9 µM (inactive)

### Prompt Now this one: `COc1ccc(N2C(=O)[C@@H](N=[N+]=[N-])[C@@H]2[C@H]2COC(C)(C)O2)cc1`
### Response > 100 µM (inactive)

### Prompt Now this one: Nc1ncnc2c1ncn2C1OC(CSCC(F)(F)F)C(O)C1O (stereo not given)
### Response > 100 µM (inactive)

### Prompt Now this one: `Cc1ncc(CI)c(CI)c1O`
### Response 12.6 µM (inactive)

### Prompt Now this one: NC(=O)c1ncn2c1NCC1OC2C(O)C1O (stereo not given)
### Response > 100 µM (inactive)

### Prompt Now this one: Cc1cc2c(cc1Cl)SC(c1ccccc1)C(=O)NS2(=O)=O (stereo not given)
### Response 27.5 µM (inactive)

### Prompt Now this one: C=CC1(C)OC2(CCN(C(=O)OCC)CC2)OC1C (stereo not given)
### Response > 100 µM (inactive)

### Prompt Now this one: `CC(=O)N(C)C=C1C(=O)N(C)C(=O)N(C)C1=O`
### Response > 100 µM (inactive)

### Prompt Now this one: `C=C1CCc2ccccc2C1=O`
### Response 19.2 µM (inactive)

### Prompt Now this one: CC1OC2=N[C@@H]1C(=O)N[C@@H](C(C)C)C1=N[C@H](C(=O)N[C@@H](C(C)C)C3=N[C@H](C(=O)N[C@@H](C(C)C)C4=N[C@H](C(=O)N[C@H]2C(C)C)C(C)O4)C(C)O3)C(C)O1 (stereo not given in full)
### Response > 10 µM (inactive)

### Prompt Now this one: `C[C@]12CCC(=O)C(OC(=O)c3ccc([N+](=O)[O-])cc3)=C1CCC2=O`
### Response > 100 µM (inactive)

### Prompt Now this one: `O=c1c(C(c2ccc(Cl)cc2)c2c(O)c3ccccc3n(-c3ccccc3)c2=O)c(O)c2ccccc2n1-c1ccccc1`
### Response 7.43 µM (inactive)

### Prompt Now this one: `N#Cc1c(Nc2ccccc2)[n+]([O-])c2ccc(Cl)cc2[n+]1[O-]`
### Response 3.16 µM (inactive)

### Prompt Now this one: `CCOC(=O)c1ccc(/N=c2/[nH]c3ccccc3s/c2=N/c2ccc(C(=O)OCC)cc2)cc1`
### Response > 100 µM (inactive)

### Prompt Now this one: `Cc1cc(C)c2c(O)cc(-c3ccc(F)cc3)nc2n1`
### Response 23.3 µM (inactive)

### Prompt Now this one: COCCN(C(C)=O)C1CCC2(SCCS2)c2[nH]c3ccccc3c21 (stereo not given)
### Response 42.5 µM (inactive)

### Prompt Now this one: `Nc1cc(S(=O)(=O)O)cc2ccc(S(=O)(=O)O)cc12`
### Response > 100 µM (inactive)

### Prompt Now this one: `CCn1c(SCc2nnc(Nc3ccccc3)s2)nc2ccccc2c1=O`
### Response 23.7 µM (inactive)
